Test readout: melting point

[
  {
    "Compound string": "CN(C)CCn1ccc2cc(NS(=O)(=O)c3cccc4ccccc34)ccc21",
    "Assay result": "179 to 181 °C"
  }
]

Q: Bench note: what melting point did CN(C)CCn1ccc2cc(NS(=O)(=O)c3cc(Cl)c(Cl)s3)ccc21 show?
A: 120 to 123 °C

Q: Note, next up: CN(C)CCn1ccc2cc(NS(=O)(=O)c3c(Cl)nc4sccn34)ccc21
A: 50 to 52 °C

Q: Subsequent entry: CN(C)CCn1ccc2cc(NS(=O)(=O)c3cccc4c(Cl)cccc34)ccc21
A: 172 to 174 °C

Q: Now this one: CN(C)CCn1ccc2cc(NS(=O)(=O)c3cc(Cl)cc(Cl)c3)ccc21
A: 124 to 126 °C

Q: // same read-out, input: CN(C)CCn1ccc2cc(NS(=O)(=O)c3cccc(Br)c3)ccc21
A: 114 to 116 °C
